protocol notes: viability loss of HPDE-C7K cells – cell-based, fluorescence, HTS, primary screen (AID 431);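 note: 0% = DMSO solvent wells and 100% = doxorubicin-treated wells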
condition context: HPDE-C7K KRASV12 cells, Alamar Blue viability, 48 h; at 10 µM
About 1,100 (1.7%) of roughly 63,000 compounds were called active.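 Rule for the calls: active = compounds whose percent cytotoxicity in the single-dose primary screen, scaled between solvent and toxic-drug controls, exceeds 50; inactive = the rest.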 This excerpt belongs to a sample that is enriched for actives. Entries with a potency or affinity are not part of this list.
Field 'call' accepts active, inactive

{"molecule": "CC(C)(C)C1CCc2onc(C(=O)Nc3cnn(Cc4ccc(F)cc4)c3)c2C1 (stereo unspecified)", "discrete label": "active"}
{"molecule": "CCOC(=O)Cc1csc(NC(=O)CSc2ncnc3c2cnn3-c2ccc(OC)cc2)n1", "discrete label": "inactive"}
{"molecule": "CCOC(=O)Cc1csc(NC(=O)CSc2ncnc3c2cnn3-c2ccccc2Cl)n1", "discrete label": "active"}
{"molecule": "CCN(CC)c1ccc(NC(=O)c2cnc3ccccn3c2=O)c(C)c1", "discrete label": "inactive"}
{"molecule": "CCCCn1nnnc1SCC(=O)Nc1ccc(C)cc1", "discrete label": "inactive"}

Alright, here's another molecule for you.
Query :: Could you please tell me the result logged for CC(C)(C)C1CCc2onc(C(=O)NCc3ccc(F)cc3)c2C1 (stereo unspecified) in this assay?
Result :: inactive

* * *

protocol notes: viability loss of HPDE-C7K cells – cell-based, fluorescence, HTS, primary screen (AID 431);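 note: 0% = DMSO solvent wells and 100% = doxorubicin-treated wells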
condition context: HPDE-C7K KRASV12 cells, Alamar Blue viability, 48 h; at 10 µM; hits give high values
Screen size: about 63,000 compounds; about 1,100 (1.7%) were called active. Many of the other results were omitted from the sample, so actives are more common in it than they were. Entries with a potency or affinity are not part of this list.
measurement kind: cytotoxicity (%)
// return numeric value only (unit: %, not printed)

Consider the reported cytotoxicity for these compounds:
{"compound": "COc1ccc(CSc2nnc(N)s2)cc1F", "cytotoxicity / %": 49.9}
{"compound": "CC[C@]1(O)C[C@@H]2CN(CCc3c([nH]c4ccccc34)[C@@](C(=O)OC)(c3cc4c(cc3OC)N(C)[C@H]3[C@@](O)(C(=O)OC)[C@H](OC(C)=O)[C@]5(CC)C=CCN6CC[C@]43[C@@H]65)C2)C1", "cytotoxicity / %": 74.9}
{"compound": "c1ccc(N2CCN(c3nnc(Cc4cccnc4)c4ccccc34)CC2)nc1", "cytotoxicity / %": 8.4}
{"compound": "N#CC1=C2SCN(c3ccccc3)CN2C(=O)CC1c1cccs1 (stereo not drawn)", "cytotoxicity / %": 2.6}
{"compound": "CCCSC1=N/C(=C\\C=C\\c2ccco2)C(=O)S1", "cytotoxicity / %": 51.9}

Query :: Specify cytotoxicity for CC1Cc2nc(SCC(=O)NCc3ccco3)n(-c3ccccc3)c(=O)c2S1 (stereo not drawn) and stop.
Result :: 3.1

Query :: Specify cytotoxicity for COc1ccc(OC)c(-n2c(O)cnc2Nc2nc(C)cc(C)n2)c1 and stop.
Result :: -6.2

Query :: Specify cytotoxicity for CN1C(=O)CC(N2CCN(C(c3ccccc3)c3ccccc3)CC2)C1=O (stereo not drawn) and stop.
Result :: -16.6

Query :: Specify cytotoxicity for COc1ccc(C)cc1N(CC(=O)NC1CCCC1)C(=O)CCC(=O)Nc1cc(C)on1 and stop.
Result :: -5.7

Query :: Specify cytotoxicity for CCc1nnc(NC(=O)OCc2ccccc2)s1 and stop.
Result :: -11.2

* * *

protocol notes: viability loss of HPDE-C7K cells – cell-based, fluorescence, HTS, primary screen (AID 431);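 note: 0% = DMSO solvent wells and 100% = doxorubicin-treated wells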
condition context: HPDE-C7K KRASV12 cells, Alamar Blue viability, 48 h; at 10 µM
The campaign covered roughly 63,000 compounds. About 1,100 (1.7%) were called active.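 How the source made its calls: active means compounds whose percent cytotoxicity in the single-dose primary screen, scaled between solvent and toxic-drug controls, exceeds 50; inactive means the rest.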 This excerpt belongs to a sample that is enriched for actives. Entries with a potency or affinity are not part of this list.
Field 'call' accepts label 1 = active, label 0 = inactive

Reference set, count: 3
{"molecule": "CCOC(=O)CSC1=C(C#N)C(c2ccco2)C(C(=O)OCc2ccccc2)=C(C)N1 (stereo unspecified)", "discrete label": "label 1"}
{"molecule": "CSCSC1=C(C#N)C(c2ccccc2Cl)C(C(C)=O)=C(C)N1 (stereo unspecified)", "discrete label": "label 0"}
{"molecule": "C=CCOC(=O)C1=C(C)NC(SCC(=O)Nc2ccc(C)c(Cl)c2)=C(C#N)C1c1ccco1 (stereo unspecified)", "discrete label": "label 0"}

Query :: Could you please tell me the result logged for COc1cc(C2C(C(=O)c3cccs3)=C(O)C(=O)N2c2cc(C)on2)ccc1O (stereo unspecified) in this assay?
Result :: label 0

Query :: Could you please tell me the result logged for COc1ccc(NC(=O)c2cc(-c3ccccc3OC)on2)cc1 in this assay?
Result :: label 0

Query :: Could you please tell me the result logged for COc1ccccc1-c1cc(C(=O)Nc2cc(C)on2)no1 in this assay?
Result :: label 0

Query :: Could you please tell me the result logged for CC(=O)C1=C(C)NC(SCC(=O)c2ccccc2)=C(C#N)C1CC(C)C (stereo unspecified) in this assay?
Result :: label 0

Query :: Could you please tell me the result logged for COc1ccccc1-c1cc(C(=O)Nc2cccnc2)no1 in this assay?
Result :: label 1

Query :: Could you please tell me the result logged for CC(=O)C1=C(C)NC(SCC(=O)c2ccc(Cl)c(Cl)c2)=C(C#N)C1c1ccco1 (stereo unspecified) in this assay?
Result :: label 1

Query :: Could you please tell me the result logged for Cc1nc(N2CCc3ccccc3C2)[nH]c(=O)c1CCC(C)C in this assay?
Result :: label 0

Query :: Could you please tell me the result logged for Cc1nc(SCC(=O)CC(=O)OC(C)C)c(C#N)c(C)c1C in this assay?
Result :: label 0
